tested-target: Adenosine receptor A2a (Mus musculus) (UniProt Q60613)
Sequence (Q60613 whole entry): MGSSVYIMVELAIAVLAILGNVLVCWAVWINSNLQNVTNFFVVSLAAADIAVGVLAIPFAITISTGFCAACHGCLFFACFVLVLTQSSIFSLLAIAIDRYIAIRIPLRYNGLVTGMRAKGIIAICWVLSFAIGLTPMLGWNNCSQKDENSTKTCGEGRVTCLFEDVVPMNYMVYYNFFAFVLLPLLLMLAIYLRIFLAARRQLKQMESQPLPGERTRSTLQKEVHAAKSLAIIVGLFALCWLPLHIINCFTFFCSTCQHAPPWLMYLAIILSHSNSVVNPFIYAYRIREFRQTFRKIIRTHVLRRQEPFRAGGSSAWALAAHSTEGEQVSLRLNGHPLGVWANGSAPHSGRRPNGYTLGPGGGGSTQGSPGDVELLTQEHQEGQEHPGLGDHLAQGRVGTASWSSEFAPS
protocol-text: Displacement of [3H]2-[p-(2-carboxyethyl)phenyl-ethylamino]-5'-N-ethylcarbox-amidoadenosine from mouse recombinant adenosine A2A receptor expressed in HEK293 at 100 uM
Type: cell-based
Recorded measurements of inhibition, one per entry

| smiles-entry | unit-string | inhibition |
| --- | --- | --- |
| CNC(=O)[C@@]12C[C@@H]1[C@@H](n1cnc3c(NCc4cc(OC)ccc4OC)nc(I)nc31)[C@H](O)[C@@H]2O | % | 14 |
| CNC(=O)[C@@]12C[C@@H]1[C@@H](n1cnc3c(NCc4cccc(C#CCCCC(=O)O)c4)nc(Cl)nc31)[C@H](O)[C@@H]2O | % | 5 |
| CNC(=O)[C@@]12C[C@@H]1[C@@H](n1cnc3c(NOC)nc(Cl)nc31)[C@H](O)[C@@H]2O | % | 2 |
| CCCC#Cc1nc(NCc2cccc(Cl)c2)c2ncn([C@H]3[C@H](O)[C@H](O)[C@]4(C(=O)NC)C[C@H]34)c2n1 | % | 42 |

###

tested-target: Adenosine receptors; A1 & A3 (Homo sapiens) (UniProt P30542+P0DMS8)
Sequence (P0DMS8 whole entry, looked up): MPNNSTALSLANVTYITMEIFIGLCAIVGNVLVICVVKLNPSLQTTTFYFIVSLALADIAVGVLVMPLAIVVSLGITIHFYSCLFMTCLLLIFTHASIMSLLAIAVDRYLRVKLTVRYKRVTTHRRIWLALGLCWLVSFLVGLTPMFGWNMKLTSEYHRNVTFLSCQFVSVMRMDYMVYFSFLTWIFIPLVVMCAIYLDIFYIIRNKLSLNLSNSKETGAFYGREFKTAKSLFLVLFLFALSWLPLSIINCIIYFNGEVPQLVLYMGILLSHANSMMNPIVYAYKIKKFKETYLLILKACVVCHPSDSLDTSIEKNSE
Sequence (P30542 whole entry, looked up): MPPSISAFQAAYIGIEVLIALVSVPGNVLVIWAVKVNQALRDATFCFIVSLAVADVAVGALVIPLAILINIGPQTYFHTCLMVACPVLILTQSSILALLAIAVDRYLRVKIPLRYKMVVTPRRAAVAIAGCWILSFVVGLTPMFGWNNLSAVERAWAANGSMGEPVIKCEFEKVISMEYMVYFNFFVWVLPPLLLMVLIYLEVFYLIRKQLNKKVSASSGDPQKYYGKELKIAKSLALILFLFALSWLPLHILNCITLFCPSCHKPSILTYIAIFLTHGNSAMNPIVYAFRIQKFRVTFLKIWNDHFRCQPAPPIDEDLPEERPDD
protocol-text: Selectivity for human adenosine A3 receptor over human adenosine A1 receptor
Label Criterion met when Ratio Ki is strictly below 200; at or above that, label Criterion not met.

| compound | assigned-class |
| --- | --- |
| CNC(=O)C12C[C@@H]1[C@@H](n1cnc3c(NCc4cccc(Cl)c4)nc(SC)nc31)[C@H](O)[C@@H]2O (single isomer, unassigned) | Criterion not met |
| CNC(=O)[C@@]12C[C@@H]1[C@@H](n1cnc3c(NCc4cccc(Cl)c4)nc(C#C[Si](C)(C)C)nc31)[C@H](O)[C@@H]2O | Criterion met |
| CNC(=O)[C@@]12C[C@@H]1[C@@H](n1cnc3c(NCc4cccc(C#CCCCC(=O)NCCN)c4)nc(Cl)nc31)[C@H](O)[C@@H]2O | Criterion met |
| CNC(=O)[C@@]12C[C@@H]1[C@@H](n1cnc3c(NCc4cccc(Cl)c4)nc(C#CCCCC(=O)NCCN)nc31)[C@H](O)[C@@H]2O | Criterion not met |
| CNC(=O)[C@@]12C[C@@H]1[C@@H](n1cnc3c(NOC)nc(Cl)nc31)[C@H](O)[C@@H]2O | Criterion met |

###

tested-target: Adenosine receptor A2a (Mus musculus) (UniProt Q60613)
protocol-text: Displacement of [3H]2-[p-(2-carboxyethyl)phenyl-ethylamino]-5'-N-ethylcarbox-amidoadenosine from mouse recombinant adenosine A2A receptor expressed in HEK293 at 100 uM
Assay type: cell-based
In this section we review reported inhibition values for a set of molecules.

| molecule | inhibition, % |
| --- | --- |
| CNC(=O)[C@@]12C[C@@H]1[C@@H](n1cnc3c(NCc4cccc(C#CCCCC(=O)NCCN)c4)nc(Cl)nc31)[C@H](O)[C@@H]2O | 39 |
| CNC(=O)[C@@]12C[C@@H]1[C@@H](n1cnc3c(NCc4cccc(Cl)c4)nc(C#CCCCC(=O)O)nc31)[C@H](O)[C@@H]2O | 8 |
| CNC(=O)C12C[C@@H]1[C@@H](n1cnc3c(NCc4cccc(Cl)c4)nc(SC)nc31)[C@H](O)[C@@H]2O (single isomer, unassigned) | 32 |
| CNC(=O)C12C[C@@H]1[C@@H](n1cnc3c(NCc4cccc(C#CCO)c4)nc(Cl)nc31)[C@H](O)[C@@H]2O (single isomer, unassigned) | 11 |
| CNC(=O)[C@@]12C[C@@H]1[C@@H](n1cnc3c(NCc4cccc(Cl)c4)nc(C#CCCCC(=O)OC)nc31)[C@H](O)[C@@H]2O | 50 |
| CNC(=O)[C@@]12C[C@@H]1[C@@H](n1cnc3c(NCc4cccc(C#CCCCC(=O)NCCNC(C)=O)c4)nc(Cl)nc31)[C@H](O)[C@@H]2O | 68 |
| CNC(=O)[C@@]12C[C@@H]1[C@@H](n1cnc3c(NCc4cccc(Cl)c4)nc(C#C[Si](C)(C)C)nc31)[C@H](O)[C@@H]2O | 20 |
| CNC(=O)C12C[C@@H]1[C@@H](n1cnc3c(NCc4cccc(Cl)c4)nc(I)nc31)[C@H](O)[C@@H]2O (single isomer, unassigned) | 40 |
| CNC(=O)[C@@]12C[C@@H]1[C@@H](n1cnc3c(NCc4cccc(Cl)c4)nc(C#CCCCC(=O)NCCN)nc31)[C@H](O)[C@@H]2O | 31 |
| C#Cc1nc(NCc2cccc(Cl)c2)c2ncn([C@H]3[C@H](O)[C@H](O)[C@]4(C(=O)NC)C[C@H]34)c2n1 | 41 |
